PROCEDURE_SUMMARY: NCI Yeast Anticancer Drug Screen. Data for the cln2 rad14 strain (AID 165);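 note: 0% = growth equal to vehicle treated cultures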
CONDITION_SUMMARY: S. cerevisiae cln2 rad14 strain, at 50.0 µM, hits give high values
Compounds without any hit were thinned out: in the full panel of roughly 79,000, 15% have a hit.
For each record, write down the corresponding growth inhibition.
Give bare numbers, in %.

MOLECULE	UNIT	growth inhibition
CCOC(=O)c1nc(SC)sc1NC(=O)c1ccc([N+](=O)[O-])cc1	%	27.1
NNC(=O)c1n[nH]n(N)c1=S	%	-8.65
Cc1ccccc1NC(=O)/C=C\C(=O)O	%	10.1

Record growth inhibition for all entries; do not skip any.
1. N=C(N)/N=C(/C=C/c1ccccc1)CC1OC(=O)c2ccccc21 (stereo not drawn)
2. c1ccc2c(OCCSCCCCCCCCCCSCCOc3cccc4ccccc34)cccc2c1
3. COc1ccc(C2C3=C(CC(C)(C)CC3=O)Oc3cc4c(cc32)OCO4)cc1 (stereo not drawn)
4. Cc1cccc2c(N=[N+]=[N-])cc(C(F)(F)F)nc12
5. Cc1cc(N(CCOS(C)(=O)=O)CCOS(C)(=O)=O)ccc1C=Nc1ccc(C(=O)O)c(O)c1

1: -2.85; 2: 7.75; 3: -0.45; 4: -43; 5: 77.5

====

PROCEDURE_SUMMARY: NCI Yeast Anticancer Drug Screen. Data for the sgs1 mgt1 strain (AID 161);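 note: 0% = growth of cultures given vehicle only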
CONDITION_SUMMARY: S. cerevisiae sgs1 mgt1 strain, at 50.0 µM, hits give high values
Procedure: Growth inhibition of yeast strains with defined genetic alterations is measured as a screen for potential anti-cancer activity. Selected strains with alterations in DNA damage repair or cell cycle control were exposed to compounds and growth inhibition was measured relative to vehicle treated controls. The strain used in this assay is sgs1 mgt1
The panel holds about 79,000 compounds, 15% with a hit somewhere; the sample as a whole holds those more often.
MEASURE: growth inhibition (%)
Give bare numbers, in %.

Sample answers from the record:
MOLECULE	growth inhibition, %
CC(=O)CC(=O)NCCCN1CCCCC1	-30.4
COC(=O)C1C(C(=O)OC)C(C(=O)OC)C1C(=O)OC (configuration not stated)	-0.45
Cc1ccc(O)c(C=O)c1	-7.65
CCON=C1C(C)(C)C(C)(C)C(C)(C)C1(C)C	-24.6
COc1cc(Br)c(C=O)cc1OC	13.6

Record growth inhibition for all entries; do not skip any.
1. O=C(c1ccc(Cl)c(Cl)c1)N1CCCCC1
2. O=C(O)c1cc2c([nH]1)-c1cccnc1C(=O)C2=O
3. O=C(O)Cc1ccc2ccccc2c1Br
4. O=C(Oc1ccc(C(=O)c2ccc(C(=O)c3ccc(OC(=O)c4cccc(Br)c4)cc3)cc2)cc1)c1cccc(Br)c1
5. CN(C)CCC(=O)Cc1ccccc1

[13.8, -15.8, 1.8, -10.7, -4.55]

Record growth inhibition for all entries; do not skip any.
1. COC(C)CCOC(=O)COc1ccccc1 (configuration not stated)
2. c1ccc(CNCCNCc2ccccn2)nc1

1: 8.35; 2: 16.1

Record growth inhibition for all entries; do not skip any.
1. O=C(N/N=C1\CCc2ccccc2C1)N/N=C1\CCc2ccccc2C1
2. C[N+](C)(C)CC(O)CC#N (configuration not stated)
3. CCN(CC)CCCNC(Cc1ccccc1)c1ccc(OC)cc1 (configuration not stated)
4. C[N+](C)([O-])Cc1cccc(NC(=O)c2ccc(C(=O)Nc3cccc(C[N+](C)(C)[O-])c3)cc2)c1
5. CC(=O)Oc1ccc(C2CC(=O)N(CCN(C)C)C2=O)cc1 (configuration not stated)
6. Cc1ccc(N=Nc2sc(N)nc2-c2ccc(Cl)cc2)cc1
7. CC(C)=CCCC(C)C=O (configuration not stated)
8. O=C(O)c1ccccc1C(=O)c1ccc(F)c2ccccc12

1. 11.7
2. -4
3. -4.05
4. -8.2
5. -0.5
6. 35.6
7. -19.4
8. 18.6

Record growth inhibition for all entries; do not skip any.
1. NC(=O)c1sc(N2CCCC2)nc1N
2. Cc1ccccc1NC(=O)c1ccccc1Cl
3. CC(=O)Oc1ccc(=O)[nH]c1
4. O=C(Cc1ccccc1)NN(Cc1ccccc1)Cc1ccccc1
5. SCc1ccc(-c2ccc(CS)cc2)cc1
6. NC(CSSCC(NC(=O)CNC(=O)OCc1ccccc1)C(=O)O)C(=O)O (configuration not stated)

[22.1, -6.9, 2.2, -2.95, 40, -11.2]

Record growth inhibition for all entries; do not skip any.
1. CCCCCCCCCCCl
2. CC(=O)C(C(C)=O)C(c1ccccn1)C(C(C)=O)C(C)=O
3. O=C(CN1CCCCC1)NC(=O)c1ccccc1
4. O=C(Cc1ccccc1)NCc1ccccc1
5. CCC(=O)OCCCc1ccccc1
6. CN1CCC(C[CH2][Sn]([c]2ccccc2)([c]2ccccc2)[c]2ccccc2)CC1
7. OC(CCl)CN1CCN(CC(O)CCl)CC1 (configuration not stated)

28.5
-4.05
-7.8
13.9
15.8
50.7
2.55

Record growth inhibition for all entries; do not skip any.
1. NC(=O)c1[nH]c(COCCO)nc1N
2. CCOC(=O)Nc1ccc(C2OCCS2)cc1 (configuration not stated)
3. O=[N+]([O-])c1cc2no[n+]([O-])c2cc1N1CCOCC1

1: 14; 2: 9.45; 3: 99.2

Report growth inhibition for CN(/N=C/c1ccc(O)c(/C=N/N(C)c2ccccn2)n1)c1ccccn1 please.
-3.35

====

PROCEDURE_SUMMARY: NCI Yeast Anticancer Drug Screen. Data for the mec2-1 strain (AID 157)
CONDITION_SUMMARY: S. cerevisiae mec2-1 strain, at 50.0 µM, hits give high values
This is part of a sample that, as a whole, favours compounds with a hit. Of some 79,000 tested, about 15% had one in any assay.
For each record, write down the corresponding growth inhibition.
Give bare numbers, in %.

Sample answers from the record:
COMPOUND	UNIT	growth inhibition
c1csc(C2=NCCC2)c1	%	-6.65
CC1C=CC(C)S(=O)N1C(=O)Cc1ccccc1 (centres undefined)	%	-14.6
OC(CI)C1OCOC2COCOC21 (centres undefined)	%	4.5

Next compound, please.
Report growth inhibition for CC(C)(Br)CS(=O)(=O)c1ccccc1 please.
5.85

====

For each record, write down the corresponding growth inhibition.
PROCEDURE_SUMMARY: NCI Yeast Anticancer Drug Screen. Data for the cln2 rad14 strain (AID 165);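 note: 0% = growth equal to vehicle treated cultures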
CONDITION_SUMMARY: S. cerevisiae cln2 rad14 strain, at 50.0 µM, hits give high values
Compounds without any hit were thinned out: in the full panel of roughly 79,000, 15% have a hit.
Numbers only, in %.

Sample answers from the record:
COMPOUND	growth inhibition, %
CC(=O)Nc1ccc(C2CC(c3ccc([N+](=O)[O-])cc3)=Nc3ccccc3S2)cc1 (configuration not stated)	17.6
CCN(CC)CCCNc1cc(OC)c(Cl)c2cccnc12	35.9
C[CH2][Sn]([CH2]C)([O]C(=O)c1ccc(F)cc1)[O][Sn]([CH2]C)([CH2]C)[O]C(=O)c1ccc(F)cc1	23.6

Record growth inhibition for all entries; do not skip any.
1. COc1nc2ccccc2c(=O)[nH]1
2. Cc1cc([N+](=O)[O-])ccc1NC(=O)OC(C)C
3. CN(C)c1ccc(C2(c3ccc(N(C)C)cc3)c3ccccc3C(=O)N2N)cc1
4. CCOC(=O)C(C(=O)OCC)c1cc(-c2cc3ccccc3o2)oc(=O)c1C#N
5. Cc1nc(/N=C(/N)N(C)C)[nH]c(=O)c1C
6. O=S(=O)([O-])c1ccc2c[n+]3ccccc3cc2c1
7. CCN(CC)Cc1cc(C(C)(C)CC)cc(-c2ccccc2)c1O
8. O=S1(=O)CC(N2CCCCC2)C=C(c2ccccc2)O1 (configuration not stated)

[0.1, 8.8, 43.5, 15.8, 3.7, -44.6, -24.9, 15.2]

Record growth inhibition for all entries; do not skip any.
1. O=C(Oc1ccccc1)C(Cc1ccccc1)NC(=O)C(F)(F)F (configuration not stated)
2. COc1ccc(Nc2nc3c(N)cc(C(F)(F)F)cc3nc2-c2ccccc2)cc1
3. NC(=O)c1ncn(C2OC(CO)C(O)C2O)c1NC=O (configuration not stated)
4. CC(CCC(=O)O)[C@H]1CCC2[C@@H]3C(=O)C[C@@H]4CC(O)CC[C@]4(C)C3CC[C@@]21C (some centres not stated)
5. CC1(C)OC(=O)C(=Cc2cccc3ccc4ccccc4c23)C(=O)O1
6. C[n+]1cc(N)cc2ccccc21

[1.5, 25.9, 7.6, 35.8, -17.1, 3.3]

====

For each record, write down the corresponding growth inhibition.
PROCEDURE_SUMMARY: NCI Yeast Anticancer Drug Screen. Data for the rad50 strain (AID 155);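 note: 0% = growth of vehicle-only cultures of the same strain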
CONDITION_SUMMARY: S. cerevisiae rad50 strain growth inhibition; at 50.0 µM; hits give high values
About 79,000 compounds went through this panel and 15% of them were active in at least one assay; those are over-represented in the sample as a whole.
Numbers only, in %.

COMPOUND	UNIT	OBSERVED_MEASUREMENT
O=C1OC2=C(CCCC2)C(N2CCCCC2)C12SCCCS2 (stereo not drawn)	%	3.65

Record growth inhibition for all entries; do not skip any.
1. O=C(O)/C=C/C(=O)Nc1cccc(C(F)(F)F)c1
2. O=C(CCC(=O)Nc1ccccc1[N+](=O)[O-])CC(=O)c1ccc(Br)cc1

[-3.5, 4.85]
